Target: T1, human cholecystokinin-1 receptor (human, UniProt P32238 1-428)
T1 sequence (looked up): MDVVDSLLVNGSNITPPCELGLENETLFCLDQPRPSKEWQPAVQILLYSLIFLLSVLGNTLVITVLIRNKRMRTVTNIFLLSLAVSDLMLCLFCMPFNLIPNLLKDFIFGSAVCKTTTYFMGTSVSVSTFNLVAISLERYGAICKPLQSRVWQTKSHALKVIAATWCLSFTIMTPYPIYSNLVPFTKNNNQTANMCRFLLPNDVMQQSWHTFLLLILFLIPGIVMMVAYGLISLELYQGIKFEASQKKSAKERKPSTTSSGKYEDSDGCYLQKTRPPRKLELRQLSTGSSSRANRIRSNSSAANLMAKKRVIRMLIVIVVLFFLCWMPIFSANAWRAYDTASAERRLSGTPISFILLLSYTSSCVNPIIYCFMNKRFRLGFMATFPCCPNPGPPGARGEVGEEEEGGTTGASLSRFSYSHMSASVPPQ
Test: cell-based or functional assay
Starred links: 1 amine or outer side, 2 acyl side, 3 side chain; linkers in the order of their positions; H or OH if unused. Non-standard residues stand in square brackets, D forms with d. No end group written: not given here. *: point of attachment. Phe(4-CH2SO3H) = N[C@@H](Cc1ccc(CS(=O)(=O)O)cc1)C(=O)O; sY = N[C@@H](Cc1ccc(OS(=O)(=O)O)cc1)C(=O)O; C18 diacid = O=C(O)CCCCCCCCCCCCCCCCC(=O)*; d(βAsp) = O=C(O)[C@@H](CC(=O)[*:2])N[*:1]; γGlu = O=C(O)[C@H](CCC(=O)[*:2])N[*:1]; NMeF = CN[C@@H](Cc1ccccc1)C(=O)O; dNMeD = CN[C@H](CC(=O)O)C(=O)O; Nle = CCCC[C@H](N)C(=O)O; AEEA = NCCOCCOCC(=O)O
EC50 (CCK-1R) by entry:
property.label: EC50 (CCK-1R) (nM)

binder	observed.value
[sY][Nle]GW[Nle][dNMeD][NMeF]-NH2 (N-terminus assumed; SMILES CCCC[C@H](NC(=O)[C@@H](N)Cc1ccc(OS(=O)(=O)O)cc1)C(=O)NCC(=O)N[C@@H](Cc1c[nH]c2ccccc12)C(=O)N[C@@H](CCCC)C(=O)N(C)[C@H](CC(=O)O)C(=O)N(C)[C@@H](Cc1ccccc1)C(N)=O, X = Nle or Nal) [sTyr-Nle-Gly-Trp-Nle-DMeAsp-MePhe-amide]	0.33
D[sY]SGW[Nle][dNMeD][NMeF]-NH2 (N-terminus assumed; SMILES CCCC[C@H](NC(=O)[C@H](Cc1c[nH]c2ccccc12)NC(=O)CNC(=O)[C@H](CO)NC(=O)[C@H](Cc1ccc(OS(=O)(=O)O)cc1)NC(=O)[C@@H](N)CC(=O)O)C(=O)N(C)[C@H](CC(=O)O)C(=O)N(C)[C@@H](Cc1ccccc1)C(N)=O, X = Nle or Nal) [Asp-sTyr-Ser-Gly-Trp-Nle-DMeAsp-MePhe-amide]	0.19
{C18 diacid-γGlu-AEEA-AEEA}-D[sY]FGW[Nle][dNMeD][NMeF]-NH2 (SMILES CCCC[C@H](NC(=O)[C@H](Cc1c[nH]c2ccccc12)NC(=O)CNC(=O)[C@H](Cc1ccccc1)NC(=O)[C@H](Cc1ccc(OS(=O)(=O)O)cc1)NC(=O)[C@H](CC(=O)O)NC(=O)COCCOCCNC(=O)COCCOCCNC(=O)CC[C@H](NC(=O)CCCCCCCCCCCCCCCCC(=O)O)C(=O)O)C(=O)N(C)[C@H](CC(=O)O)C(=O)N(C)[C@@H](Cc1ccccc1)C(N)=O, X = Nle or Nal)	0.41
{C18 diacid-γGlu-AEEA-AEEA}-E[sY]LGW[Nle][dNMeD]F-NH2 (SMILES CCCC[C@H](NC(=O)[C@H](Cc1c[nH]c2ccccc12)NC(=O)CNC(=O)[C@H](CC(C)C)NC(=O)[C@H](Cc1ccc(OS(=O)(=O)O)cc1)NC(=O)[C@H](CCC(=O)O)NC(=O)COCCOCCNC(=O)COCCOCCNC(=O)CC[C@H](NC(=O)CCCCCCCCCCCCCCCCC(=O)O)C(=O)O)C(=O)N(C)[C@H](CC(=O)O)C(=O)N[C@@H](Cc1ccccc1)C(N)=O, X = Nle or Nal)	0.37
{C18 diacid-γGlu-AEEA-AEEA}-[d(βAsp)][Phe(4-CH2SO3H)][Nle]GW[Nle][dNMeD][NMeF]-NH2 (SMILES CCCC[C@H](NC(=O)[C@H](Cc1ccc(CS(=O)(=O)O)cc1)NC(=O)C[C@@H](NC(=O)COCCOCCNC(=O)COCCOCCNC(=O)CC[C@H](NC(=O)CCCCCCCCCCCCCCCCC(=O)O)C(=O)O)C(=O)O)C(=O)NCC(=O)N[C@@H](Cc1c[nH]c2ccccc12)C(=O)N[C@@H](CCCC)C(=O)N(C)[C@H](CC(=O)O)C(=O)N(C)[C@@H](Cc1ccccc1)C(N)=O)	0.43

Values were extracted from patent US20170008928A1.
